# TARGET_OF_ASSAY: T1, HLA-A*0201 molecule expressed on human tumor cell line T2 (human)
# T1 construct: surface HLA-A2 read with anti-HLA-A2 antibody BB7.2-PE by FACS; also called HLA-A2
# EXPERIMENT_NOTES: T2 cell HLA-A2 stabilisation, FACS; 20% of signal of HIV pol 589-597 at 100 µM
REPORTED_METRIC: Concentration of peptide that induces 20% of HLA-A2 expression (µM)
State just the number; it will be interpreted in µM.

Use the examples below as a reference point.
INSERT INTO assay_data (binder, assay_value) VALUES
  ('RLSSYLVEI [FOXM1-B]', 46.7),
  ('LMDLSTTPL [FOXM1-H2]', 12.6),
  ('RVSSYLVPI [FOXM1-H]', 37.6);

Bench note: what Concentration of peptide that induces 20% of HLA-A2 expression did YTLGEFLYI [BIRC5-B2] show?
14.7
